Cited source for all entries: patent US20170217976A1

# target-desc: human MOR (Homo sapiens)
# Construct: expressed in transfected cells; host or cells: CHO cells
# Sequence (P35372 whole entry): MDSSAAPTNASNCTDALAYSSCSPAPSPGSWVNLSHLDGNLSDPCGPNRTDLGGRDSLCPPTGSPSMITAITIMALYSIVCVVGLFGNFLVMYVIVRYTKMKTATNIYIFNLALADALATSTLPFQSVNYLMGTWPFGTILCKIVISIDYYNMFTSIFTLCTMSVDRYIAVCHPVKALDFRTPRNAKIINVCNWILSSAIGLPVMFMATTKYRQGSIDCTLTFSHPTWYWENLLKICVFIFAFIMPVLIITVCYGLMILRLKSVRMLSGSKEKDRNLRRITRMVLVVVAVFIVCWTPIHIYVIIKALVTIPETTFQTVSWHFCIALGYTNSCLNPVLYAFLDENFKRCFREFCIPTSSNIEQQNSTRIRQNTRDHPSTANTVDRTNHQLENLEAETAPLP
# protocol-details: biochemical
# Type: biochemical
# experimental-context: Table 1-4, human MOP expressed in CHO cells; read-out: [35S]GTPγS binding, MOR EC50
outcome-measure: EC50 (nM)
State the answer as a number, implicitly in nM.

For orientation, consider the following solved cases.
1. CO[C@@]12CC[C@@H](N[C@@H](Cc3c[nH]c4ccccc34)C(=O)O)[C@@H]3Oc4c(O)ccc5c4[C@@]31CCN(C)[C@@H]2C5 :: 0.61
2. CO[C@@]12CC[C@H](N[C@@H](CCC(=O)O)C(=O)O)[C@@H]3Oc4c(O)ccc5c4[C@@]31CCN(C)[C@@H]2C5 :: 1.61
3. CO[C@@]12CC[C@H](N[C@@H](CC(N)=O)C(=O)O)[C@@H]3Oc4c(O)ccc5c4[C@@]31CCN(C)[C@@H]2C5 :: 0.64

Next molecule, EC50 to be filled in.
Reading of EC50 for CO[C@@]12CCC(=O)[C@@H]3Oc4c(O)ccc5c4[C@@]31CCN(C)[C@@H]2C5 [Compound 14-OMO, 14-O-methyloxymorphone, reference compound] with human MOR (Homo sapiens): 1.17
